Target: Motilin receptor (Oryctolagus cuniculus)
Sequence (A5A4K8 whole entry): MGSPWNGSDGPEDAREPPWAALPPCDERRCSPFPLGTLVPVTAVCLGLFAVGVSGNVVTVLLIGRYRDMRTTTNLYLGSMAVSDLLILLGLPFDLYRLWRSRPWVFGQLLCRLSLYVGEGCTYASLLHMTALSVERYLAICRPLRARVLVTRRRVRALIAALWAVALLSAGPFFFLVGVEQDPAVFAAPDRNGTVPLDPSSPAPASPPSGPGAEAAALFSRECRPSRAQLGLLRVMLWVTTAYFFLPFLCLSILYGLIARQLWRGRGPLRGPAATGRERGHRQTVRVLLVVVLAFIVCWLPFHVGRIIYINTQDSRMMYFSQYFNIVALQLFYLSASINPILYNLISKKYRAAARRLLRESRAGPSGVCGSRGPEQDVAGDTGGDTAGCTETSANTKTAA
Assay: Agonist activity at motilin receptor in rabbit smooth muscle assessed as increase of muscle contraction
pEC50 values by entry
Convention used: pEC50 is expressed as -log10 of the molar concentration.

1. CC[C@H]1OC(=O)[C@H](C)[C@@H](O[C@@H]2C[C@@](C)(OC)[C@@H](O)[C@H](C)O2)[C@H](C)[C@@H](O[C@@H]2O[C@H](C)C[C@H](N(C)C3COC3)[C@H]2O)[C@](C)(O)C[C@@H](C)[C@H](O)[C@H](C)[C@@H](O)[C@]1(C)O: 5.24

Turning to the following compound.
q: Find the measured pEC50 of CC[C@H]1OC(=O)[C@H](C)[C@@H](O[C@@H]2C[C@@](C)(OC)[C@@H](O)[C@H](C)O2)[C@H](C)[C@@H](O[C@@H]2O[C@H](C)C[C@H](N(C)CC3CC3)[C@H]2O)[C@](C)(O)C[C@@H](C)[C@H](O)[C@H](C)[C@@H](O)[C@]1(C)O with Motilin receptor (Oryctolagus cuniculus) as test system.
a: 6.51

----------
# Lookup of reported Activity keyed by entry
Molecular target: Motilin receptor (Oryctolagus cuniculus) (UniProt A5A4K8)
Sequence (A5A4K8 as listed by the source): as the sequence (A5A4K8 whole entry) above
Test: Agonist activity at motilin receptor in rabbit smooth muscle assessed as increase of muscle contraction at EC90 concentration treated three cycles of administration measured after 4th dose
Type: functional
The answer should read as a number with its unit following.

1. CC[C@H]1OC(=O)[C@H](C)[C@@H](O[C@@H]2C[C@@](C)(OC)[C@@H](O)[C@H](C)O2)[C@H](C)[C@@H](O[C@@H]2O[C@H](C)C[C@H](N(C)C[C@@H](C)O)[C@H]2O)[C@](C)(O)C[C@@H](C)[C@H](O)[C@H](C)[C@@H](O)[C@]1(C)O: 93%
2. CC[C@H]1OC(=O)[C@H](C)[C@@H](O[C@@H]2C[C@@](C)(OC)[C@@H](O)[C@H](C)O2)[C@H](C)[C@@H](O[C@@H]2O[C@H](C)C[C@H](N(C)C3CCC3)[C@H]2O)[C@](C)(O)C[C@@H](C)[C@H](O)[C@H](C)[C@@H](O)[C@H]1C: 71%
3. CC[C@H]1OC(=O)[C@H](C)[C@@H](O[C@@H]2C[C@@](C)(OC)[C@@H](O)[C@H](C)O2)[C@H](C)[C@@H](O[C@@H]2O[C@H](C)C[C@H](N(C)CC(C)C)[C@H]2O)[C@](C)(O)C[C@@H](C)[C@H](O)[C@H](C)[C@@H](O)[C@]1(C)O: 81%

Here's the next entry for you.
q: Tell me its Activity on Motilin receptor (Oryctolagus cuniculus) (UniProt A5A4K8): CC[C@H]1OC(=O)[C@H](C)[C@@H](O[C@@H]2C[C@@](C)(OC)[C@@H](O)[C@H](C)O2)[C@H](C)[C@@H](O[C@@H]2O[C@H](C)C[C@H](N(C)C(C)C)[C@H]2O)[C@](C)(O)C[C@@H](C)[C@H](O)[C@H](C)[C@@H](O)[C@H]1C
a: 79%

----------
Form field: Activity (one value per entry).
Biological target: Motilin receptor (Oryctolagus cuniculus)
Assay: Agonist activity at motilin receptor in rabbit smooth muscle assessed as increase of muscle contraction at EC90 concentration treated three cycles of administration measured after 4th dose
Assay type: functional
Answer format: number, then unit.

1) CC[C@H]1OC(=O)[C@H](C)[C@@H](O[C@@H]2C[C@@](C)(OC)[C@@H](O)[C@H](C)O2)[C@H](C)[C@@H](O[C@@H]2O[C@H](C)C[C@H](N(C)C3CCC3)[C@H]2O)[C@](C)(O)C[C@@H](C)[C@H](O)[C@H](C)[C@@H](O)[C@]1(C)O: 90%
2) CC[C@H]1OC(=O)[C@H](C)[C@@H](O[C@@H]2C[C@@](C)(OC)[C@@H](O)[C@H](C)O2)[C@H](C)[C@@H](O[C@@H]2O[C@H](C)C[C@H](N(C)C[C@@H](C)O)[C@H]2O)[C@](C)(O)C[C@@H](C)[C@H](O)[C@H](C)[C@@H](O)[C@H]1C: 89%
3) CC[C@H]1OC(=O)[C@H](C)[C@@H](O[C@@H]2C[C@@](C)(OC)[C@@H](O)[C@H](C)O2)[C@H](C)[C@@H](O[C@@H]2O[C@H](C)C[C@H](N(C)C(C)C)[C@H]2O)[C@](C)(O)C[C@@H](C)[C@H](O)[C@H](C)[C@@H](O)[C@]1(C)O: 76%

Attention now shifts to the item below.
q: Report Activity for CC[C@H]1OC(=O)[C@H](C)[C@@H](O[C@@H]2C[C@@](C)(OC)[C@@H](O)[C@H](C)O2)[C@H](C)[C@@H](O[C@@H]2O[C@H](C)C[C@H](N(C)C[C@H](C)O)[C@H]2O)[C@](C)(O)C[C@@H](C)[C@H](O)[C@H](C)[C@@H](O)[C@H]1C
a: 70%

----------
Molecular target: Motilin receptor (Oryctolagus cuniculus)
Test: Agonist activity at motilin receptor in rabbit smooth muscle assessed as increase of muscle contraction at EC90 concentration treated three cycles of administration measured after 4th dose
Type: functional
assay endpoint: Activity (%)
A number alone suffices; assume %.

Consider the worked cases shown below.
1. CC[C@H]1OC(=O)[C@H](C)[C@@H](O[C@@H]2C[C@@](C)(OC)[C@@H](O)[C@H](C)O2)[C@H](C)[C@@H](O[C@@H]2O[C@H](C)C[C@H](N(C)CC(C)(C)O)[C@H]2O)[C@](C)(O)C[C@@H](C)[C@H](O)[C@H](C)[C@@H](O)[C@]1(C)O: 89
2. CC[C@H]1OC(=O)[C@H](C)[C@@H](O[C@@H]2C[C@@](C)(OC)[C@@H](O)[C@H](C)O2)[C@H](C)[C@@H](O[C@@H]2O[C@H](C)C[C@H](N(C)CC(C)(C)O)[C@H]2O)[C@](C)(O)C[C@@H](C)[C@H](O)[C@H](C)[C@@H](O)[C@H]1C: 56
3. CC[C@H]1OC(=O)[C@H](C)[C@@H](O[C@@H]2C[C@@](C)(OC)[C@@H](O)[C@H](C)O2)[C@H](C)[C@@H](O[C@@H]2O[C@H](C)C[C@H](N(C)C[C@H](C)O)[C@H]2O)[C@](C)(O)C[C@@H](C)[C@H](O)[C@H](C)[C@@H](O)[C@]1(C)O: 95

Could you now look at the following compound, please?
q: Give Activity for this entry on Motilin receptor (Oryctolagus cuniculus): CC[C@H]1OC(=O)[C@H](C)[C@@H](O[C@@H]2C[C@@](C)(OC)[C@@H](O)[C@H](C)O2)[C@H](C)[C@@H](O[C@@H]2O[C@H](C)C[C@H](N(C)CCO)[C@H]2O)[C@](C)(O)C[C@@H](C)[C@H](O)[C@H](C)[C@@H](O)[C@]1(C)O
a: 86

The measured values listed here are drawn from ChEMBL document CHEMBL1255554.
